target-or-system: p53-R282W (Homo sapiens, UniProt P04637, R282W)
Construct: pcDNA3.1 expressing human full length p53 was gift from Prof; Xin Lu; expressed in transfected cells; host or cells: H1299 (p53-null)
Type: cell-based
condition-details: p53-R282W on PUMA promoter, agents 24 hr (FIG. 37 and FIG. 41)
enhancement of p53 transcriptional activity in luciferase assay for assorted molecules
value-type: enhancement of p53 transcriptional activity in luciferase assay (times)

[
  {
    "molecule": "COc1ccc(/C=C/c2nc(NCCCN(C)C)c3ccccc3n2)cc1 [CP31398]",
    "value-units": "times",
    "test-value": 1.5
  },
  {
    "molecule": "C/C(=N\\NC(=S)N1CCC1)c1ccccn1 [NSC319726]",
    "value-units": "times",
    "test-value": 1.5
  },
  {
    "molecule": "Cc1c2ccncc2c(C)c2c1[nH]c1ccccc12 [Ellipticine]",
    "value-units": "times",
    "test-value": 3.3
  }
]
